- Measurement Notes: The drug is tested on WLS-073 corresponding to human gut metagenome with ENA study accession number: PRJEB37062 and ENA sample accession number: ERS12561749 for biotransformation under anaerobic condition. The drug concentrations were measured over 9 timepoints collected between 0 and 24 hours of incubation by liquid-chromatography-coupled mass spectrometry (LC–MS); also: call rule not given here
- Recorded Conditions: 2 µM
Recorded Metric: Bacterial Biotransformation

Use the examples below as a reference point.
{"columns": ["Compound", "Recorded Metric", "Observed Result"],
 "data": [
  ["CCOC(=O)C1=C(C)NC(C)=C(C(=O)OC)C1c1cccc([N+](=O)[O-])c1 (centres undefined) [NITRENDIPINE]", "Bacterial Biotransformation", "Compound metabolized"],
  ["COc1cc2nc(N3CCN(C(=O)C4CCCO4)CC3)nc(N)c2cc1OC (centres undefined) [TERAZOSIN]", "Bacterial Biotransformation", "Compound metabolized"],
  ["CCOC(=O)[C@H](CCc1ccccc1)N[C@@H](C)C(=O)N1Cc2ccccc2C[C@H]1C(=O)O", "Bacterial Biotransformation", "Compound metabolized"],
  ["CCN(C)C(=O)Oc1cccc([C@H](C)N(C)C)c1.O=C(O)C(O)C(O)C(=O)O [RIVASTIGMINE TARTRATE]", "Bacterial Biotransformation", "Compound NOT metabolized"],
  ["CCOC(=O)C1=C[C@]2(CC)CCCN3CCc4c(n1c1ccccc41)[C@@H]32 [VINPOCETINE]", "Bacterial Biotransformation", "Compound metabolized"],
  ["CNCC[C@H](Oc1cccc2ccccc12)c1cccs1 [DULOXETINE]", "Bacterial Biotransformation", "Compound NOT metabolized"],
  ["CCN(CC)C(=O)C1(c2ccccc2)CC1CN (centres undefined)", "Bacterial Biotransformation", "Compound NOT metabolized"],
  ["CC1=C(CC(=O)O)c2cc(F)ccc2/C1=C\\c1ccc([S+](C)[O-])cc1 (centres undefined)", "Bacterial Biotransformation", "Compound metabolized"]
]}

Identify measured Bacterial Biotransformation associated with "N[C@@H](Cc1ccc(N(CCCl)CCCl)cc1)C(=O)O"
Compound metabolized

---

- Measurement Notes: The drug is tested on WLS-073 corresponding to human gut metagenome with ENA study accession number: PRJEB37062 and ENA sample accession number: ERS12561749 for biotransformation under anaerobic condition. The drug concentrations were measured over 9 timepoints collected between 0 and 24 hours of incubation by liquid-chromatography-coupled mass spectrometry (LC–MS)
- Recorded Conditions: 2 µM
Recorded Metric: Bacterial Biotransformation

Use the examples below as a reference point.
{"columns": ["Compound", "Observed Result"],
 "data": [
  ["CC(C)[C@H]1CC[C@H](C(=O)N[C@H](Cc2ccccc2)C(=O)O)CC1 [NATEGLINIDE]", "Compound metabolized"],
  ["C[C@@H](c1ncncc1F)[C@](O)(Cn1cncn1)c1ccc(F)cc1F", "Compound metabolized"],
  ["CC(C)(C)NCC(O)c1cc(Cl)c(N)c(Cl)c1 (stereo unspecified)", "Compound NOT metabolized"],
  ["CN(C)C(=O)Oc1cc(OC(=O)N(C)C)cc(C(O)CNC(C)(C)C)c1 (stereo unspecified)", "Compound NOT metabolized"],
  ["O=C1C(CC[S+]([O-])c2ccccc2)C(=O)N(c2ccccc2)N1c1ccccc1 (stereo unspecified)", "Compound metabolized"],
  ["CN1CCC(=C2c3ccccc3CC(=O)c3sccc32)CC1.O=C(O)/C=C/C(=O)O [KETOTIFEN FUMARATE]", "Compound metabolized"]
]}

In the following, a different compound is considered.
Identify measured Bacterial Biotransformation associated with C=C[C@H]1CN2CC[C@H]1C[C@H]2[C@H](O)c1ccnc2ccc(OC)cc12.C=C[C@H]1CN2CC[C@H]1C[C@H]2[C@H](O)c1ccnc2ccc(OC)cc12.O.O.O=S(=O)(O)O [QUININE SULFATE]
Compound NOT metabolized

---

- Measurement Notes: The drug is tested on WLS-073 corresponding to human gut metagenome with ENA study accession number: PRJEB37062 and ENA sample accession number: ERS12561749 for biotransformation under anaerobic condition. The drug concentrations were measured over 9 timepoints collected between 0 and 24 hours of incubation by liquid-chromatography-coupled mass spectrometry (LC–MS)
- Recorded Conditions: 2 µM
Recorded Metric: Bacterial Biotransformation

{"columns": ["Compound", "Recorded Metric", "Observed Result"],
 "data": [
  ["Cc1ccccc1C(OCCN(C)C)c1ccccc1.O=C(O)CC(O)(CC(=O)O)C(=O)O (centres undefined) [ORPHENADRINE CITRATE]", "Bacterial Biotransformation", "Compound NOT metabolized"],
  ["COc1ccccc1OCCNCC(O)COc1cccc2[nH]c3ccccc3c12 (centres undefined)", "Bacterial Biotransformation", "Compound metabolized"],
  ["C#C[C@]1(OC(C)=O)CC[C@H]2[C@@H]3CCC4=C/C(=N/O)CC[C@@H]4[C@H]3CC[C@@]21CC [NORGESTIMATE]", "Bacterial Biotransformation", "Compound metabolized"],
  ["COc1cc(C(=O)NCc2ccc(OCCN(C)C)cc2)cc(OC)c1OC [TRIMETHOBENZAMIDE]", "Bacterial Biotransformation", "Compound NOT metabolized"]
]}

---

- Measurement Notes: The drug is tested on Z-004 corresponding to metagenome with ENA study accession number: PRJEB37062 and ENA sample accession number: ERS12561804 for biotransformation under anaerobic condition. The drug concentrations were measured over 9 timepoints collected between 0 and 24 hours of incubation by liquid-chromatography-coupled mass spectrometry (LC–MS)
- Recorded Conditions: 2 µM
Recorded Metric: Bacterial Biotransformation

Use the examples below as a reference point.
{"columns": ["Molecule", "Bacterial Biotransformation"],
 "data": [
  ["CN1[C@@H]2CC[C@H]1C[C@@H](OC(=O)c1c[nH]c3ccccc13)C2", "Compound NOT metabolized"],
  ["CC(C)C[C@H]1C(=O)N2CCC[C@H]2[C@]2(O)O[C@](NC(=O)[C@@H]3C=C4c5cccc6[nH]c(Br)c(c56)C[C@H]4N(C)C3)(C(C)C)C(=O)N12.CS(=O)(=O)O [BROMOCRIPTINE MESYLATE]", "Compound metabolized"],
  ["CN(C)C(=O)Oc1cc(OC(=O)N(C)C)cc(C(O)CNC(C)(C)C)c1 (stereo not drawn)", "Compound metabolized"],
  ["CC1=C(CC(=O)O)c2cc(F)ccc2/C1=C\\c1ccc([S+](C)[O-])cc1 (stereo not drawn)", "Compound NOT metabolized"],
  ["CCOc1ccc2nc(S(N)(=O)=O)sc2c1 [ETHOXZOLAMIDE]", "Compound NOT metabolized"]
]}

Identify measured Bacterial Biotransformation associated with "CNNCc1ccc(C(=O)NC(C)C)cc1"
Compound NOT metabolized

Identify measured Bacterial Biotransformation associated with "C[C@@H](c1ncncc1F)[C@](O)(Cn1cncn1)c1ccc(F)cc1F"
Compound NOT metabolized

Identify measured Bacterial Biotransformation associated with CCOc1ccccc1OCCN[C@H](C)Cc1ccc(OC)c(S(N)(=O)=O)c1.Cl [TAMSULOSIN HYDROCHLORIDE]
Compound NOT metabolized

Identify measured Bacterial Biotransformation associated with "CN(C/C=C/C#CC(C)(C)C)Cc1cccc2ccccc12"
Compound NOT metabolized

Identify measured Bacterial Biotransformation associated with O=C1CN2Cc3c(ccc(Cl)c3Cl)N=C2N1 [ANAGRELIDE]
Compound NOT metabolized

---

- Recorded Conditions: human gut metagenome, 24 h, 2 µM
Recorded Metric: Bacterial Biotransformation

Use the examples below as a reference point.
{"columns": ["Molecule", "Bacterial Biotransformation"],
 "data": [
  ["COc1ccc(Cc2nccc3cc(OC)c(OC)cc23)cc1OC [PAPAVERINE]", "Compound NOT metabolized"],
  ["CN1CCC(OC(c2ccccc2)c2ccccc2)CC1", "Compound NOT metabolized"],
  ["N[C@@H](Cc1ccc(N(CCCl)CCCl)cc1)C(=O)O", "Compound metabolized"],
  ["CC(=O)Nc1ccc(OC(C)=O)cc1 [DIACETAMATE]", "Compound metabolized"],
  ["CC[C@H](C)C(=O)O[C@H]1CCC=C2C=C[C@H](C)[C@H](CC[C@@H]3C[C@@H](O)CC(=O)O3)[C@H]21 [MEVASTATIN]", "Compound metabolized"],
  ["CC(C)(C)N.CCC[C@H](N[C@@H](C)C(=O)N1[C@H](C(=O)O)C[C@@H]2CCCC[C@@H]21)C(=O)OCC [PERINDOPRIL ERBUMINE]", "Compound metabolized"]
]}

Identify measured Bacterial Biotransformation associated with Nc1nc(N)nc(-c2cc(Cl)ccc2Cl)n1.O=C(O)/C=C\C(=O)O [IRSOGLADINE MALEATE]
Compound NOT metabolized

Identify measured Bacterial Biotransformation associated with Br.CN1CCC[C@@H]1Cc1c[nH]c2ccc(CCS(=O)(=O)c3ccccc3)cc12 [ELETRIPTAN HYDROBROMIDE]
Compound NOT metabolized

Identify measured Bacterial Biotransformation associated with CCN(CC)C(=O)C1(c2ccccc2)CC1CN (centres undefined)
Compound NOT metabolized
